B1: tRNA (parent)
chain: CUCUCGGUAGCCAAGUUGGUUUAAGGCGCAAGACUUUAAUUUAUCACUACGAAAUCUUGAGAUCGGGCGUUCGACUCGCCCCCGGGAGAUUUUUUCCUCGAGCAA

Variants of: B1
Test: nonsense suppression (GFP-seq) (ratio to wild type); higher = more function; SUP4oc tRNA, yeast GFP reporter sort-seq
This sample holds only a part of the variants without activity.
Quantity Measured: nonsense suppression

The following variants have reported results that may help.
CUCUCGGUAGCUCAGUUGGAUUAAGGCGCAAGACUUUAAUUUAUCACUACGAAAUCUUGAGAUCGGGCGUUCGACUCGCCCCCGGGAGAUUUUUUCCUCGAGCAA [C12U A13C U20A] :: ≤ 0.026
CUCUCGGUAGCCAAGUUGGUUUCAGGCGCAAGACGUUAAUUUAUCACUACGAAAUCUUGAGAUCGGGCGUUCGACUCGCCCCCGGGAGAUUUUUUCCUCGAGCAA [A23C U35G] :: ≤ 0.026
CUCUCGGUAGCCAAGUUGGUUUAAGGCGCAAGACUUUAAUUUAUCACUACGAAAUCUUGAUAUCGGGCGUUCGACUCGCUCCCGGGAGAUUUUUUCCUCGAGCAA [G61U C80U] :: 0.677

Now look at this one.
// fetch nonsense suppression given entry CUCUCGGUAGCCCAGUUGGUUUAAGGCGCAAGACUUUAAUUUAUCACUACGAAAUCUUGAGAUCGGGUGUUCGACUCGCCCCCGGGAGAUUUUUUCCUCGAGCAA [A13C C68U] 0.836

Source: the RNAGym collection of RNA variant scans (doi:10.1101/gad.245936.114)
